Tested on: RPMI-8226
Test Name: NCI tumour cell line growth inhibition, 48 h
Activity calls are given as the source filed them. Rule as the data show it: active = GI50 up to about 1.1 µM and inactive = higher.
// allowed return values: active, inactive

Check out these entries, answers already filled in.
Cn1nc(-c2ccccc2)c(C(=O)/C=C/c2ccc(Cl)cc2)c(N2CCOCC2)c1=O; inactive
CCC12C=C(C(=O)OC)N3c4ccccc4C4CCN(CCC1)C2C43 (centres undefined); inactive
NNC(=O)c1ccc[n+](CCc2ccccc2)c1; inactive
COc1cc(-c2c3c([nH]c(=O)c2C#N)-c2cc([N+](=O)[O-])ccc2CCC3)cc(OC)c1OC; inactive
C=CCN(c1cc(OC)c2[nH]c(C(=O)O)c(C)c2c1[N+](=O)[O-])S(C)(=O)=O; inactive
Cc1[nH]c2ccccc2c1-c1cc(-c2cc(-c3c(C)[nH]c4ccccc34)on2)no1; inactive

q: Called result for O=C1Nc2ccccc2C1Cc1ccc([N+](=O)[O-])cc1 (centres undefined)
a: inactive

q: Called result for O=C(Nc1ccccc1C(=O)O)C(=O)C(C(=O)c1ccccc1-c1ccccc1)C1OC(=O)c2ccccc21 (centres undefined)
a: inactive

q: Called result for Cc1ccc(N2C(N)=C(C#N)C(C#N)(C#N)C2c2ccccc2)cc1 (centres undefined)
a: inactive

q: Called result for "C[C@@H]1OC(=O)/C(=C\N(C)C)[C@H]2CC(=O)N(CCc3cn(S(=O)(=O)C(F)(F)F)c4ccccc34)C[C@H]12"
a: inactive

q: Called result for "COc1ccccc1-c1c(C#N)c(N)[nH]c(=S)c1C#N"
a: inactive

q: Called result for "COC(=O)c1cc(C)ccc1/C=C1\Cc2cc(C)c(C)cc2C1=O"
a: inactive

q: Called result for "N#Cc1ccc(/C=C(/C(=O)c2ccccc2)c2ccccc2)cc1"
a: inactive

q: Called result for Cc1ccc(C(=O)NC2C(=O)NC(C(C)C)C(=O)N3CCCC3C(=O)N(C)CC(=O)N(C)C(C(C)C)C(=O)OC2C)c2c1Oc1c(c(C(=O)NC3C(=O)NC(C(C)C)C(=O)N4CCCC4C(=O)N(C)CC(=O)N(C)C(C(C)C)C(=O)OC3C)c3nc(-c4ccccc4)c(=O)oc3c1C)N2 (centres undefined)
a: active

q: Called result for "CCOC(=O)c1c(N/C(S)=N/c2ccccc2)sc2c1CCOC2"
a: inactive

q: Called result for "CC1(C)CC(/C=C2/OC(=O)c3ccccc32)=C(C(N)=O)C(=O)O1"
a: inactive

q: Called result for "OCCc1cnco1"
a: inactive

q: Called result for "O=c1c2cc(S(=O)(=O)O)ccc2nc(COc2ccc(Oc3ccc(Cl)cc3Cl)cc2)n1-c1ccc(Cl)cc1Oc1c(Cl)cccc1Cl"
a: inactive

q: Called result for CCO[C@@H]1CCC([S+]([O-])c2ccc(C)cc2)=CO1 (some centres undefined)
a: inactive
